Please respond with reported TGI for every item in the list.
- System: EKVX NSCLC
- Method: NCI tumour cell line growth inhibition, 48 h

If you can, please state the reported TGI value of `Clc1ccc2c(NCCCCN=Cc3ccccc3)ccnc2c1` .
43.7 µM

If you can, please state the reported TGI value of `CNC=O.[O]=[Ge].[O]=[Ge].[O]=[Ge].[O]=[Ge][OH].[O]=[Ge][OH]` .
> 100 µM

If you can, please state the reported TGI value of COc1ccc(OC(=O)O[C@H]2[C@H](O[C@H]3[C@@H](O)COC(O[C@H]4C[C@H]5[C@@H]6CC=C7C[C@@H](O)CC[C@]7(C)[C@H]6CC[C@]5(C)[C@H]4[C@H](C)C(=O)CCC(C)C)[C@@H]3OC(C)=O)OC[C@@H](O)[C@@H]2O)cc1 (some centres undefined) .
19.6 µM

If you can, please state the reported TGI value of COc1cc(C2c3cc4c(cc3[C@@H](Nc3ccccc3)C3CO[C@@H](OC)[C@H]23)OCO4)cc(OC)c1O (some centres undefined) .
> 25 µM

If you can, please state the reported TGI value of `S=C1Cc2c([nH]c3ccccc23)-c2ccccc2N1` .
> 100 µM

If you can, please state the reported TGI value of CC(=O)OC[C@H]1[C@@H]2C(CC[C@]13CO3)OC(=O)CC(C)[C@]2(C)CCc1ccoc1 (some centres undefined) .
> 100 µM

If you can, please state the reported TGI value of `CC#CC(=O)Nc1ccccc1CC(c1c[nH]c2ccccc12)c1c[nH]c2ccccc12` .
54.7 µM

If you can, please state the reported TGI value of Cc1ccc(S(=O)(=O)OC2C3OC(C)(C)OC3OC2C(c2cc(O)c3c(c2O)C(=O)c2ccccc2C3=O)c2cc(O)c3c(c2O)C(=O)c2ccccc2C3=O)cc1 (centres undefined) .
> 10 µM

If you can, please state the reported TGI value of `Cn1c(=O)c2c(nc(NCCCCl)n2CC(=O)NCCCCl)n(C)c1=O` .
> 100 µM

If you can, please state the reported TGI value of O=C(O)C1C(C(=O)O)C(C(=O)O)C1C(=O)O (centres undefined) .
> 100 µM

If you can, please state the reported TGI value of `O=c1[nH]nc(-c2cccc(Br)c2)[nH]1` .
79.1 µM

If you can, please state the reported TGI value of `COc1ccc(OC)c(/C=C/NC=O)c1` .
> 100 µM

If you can, please state the reported TGI value of `CC[C@H](C)[C@H](NC(=O)[C@H]1CCCCN1C)C(=O)N(C)[C@H](CCc1nc(C(=O)N[C@@H](Cc2ccccc2)C[C@H](C)C(=O)OC)cs1)C(C)C` .
> 25 µM

If you can, please state the reported TGI value of `COc1cc2c(/C=C3/C(=O)Nc4cccc(Cl)c43)c(Cl)n(Cc3ccccc3)c2cc1C` .
> 26.4 µM

If you can, please state the reported TGI value of `O=P(O)(O)CN1CCN(CP(=O)(O)O)CCN(CP(=O)(O)O)CCN(CP(=O)(O)O)CC1` .
> 100 µM

If you can, please state the reported TGI value of `CCOC(=O)c1c(SC(=O)/C=C/c2ccccc2)n(-c2ccccc2)c(=S)n(-c2ccccc2)c1=O` .
> 100 µM

If you can, please state the reported TGI value of CCCN(CCCCC(NC(C)=O)C(=O)NCc1ccccc1)C(=O)N(CCCl)N=O (centres undefined) .
> 100 µM

If you can, please state the reported TGI value of `C=CCN1C(=O)/C(=C/c2ccccc2)NC1=S` .
> 100 µM

If you can, please state the reported TGI value of `NC(N)=NC(N)=Nc1cc2ccccc2c2ccccc12` .
29.1 µM
